targetUnderTest: T1, ectodomain of human pIgR (R&D Systems Cat #2717-PG) (human, UniProt P01833 19-638)
T1 construct: extracellular domain; Immobilised on Maxisorp plates at 5 ug/ml; also called pIgR ectodomain
T1 sequence (P01833 19-638): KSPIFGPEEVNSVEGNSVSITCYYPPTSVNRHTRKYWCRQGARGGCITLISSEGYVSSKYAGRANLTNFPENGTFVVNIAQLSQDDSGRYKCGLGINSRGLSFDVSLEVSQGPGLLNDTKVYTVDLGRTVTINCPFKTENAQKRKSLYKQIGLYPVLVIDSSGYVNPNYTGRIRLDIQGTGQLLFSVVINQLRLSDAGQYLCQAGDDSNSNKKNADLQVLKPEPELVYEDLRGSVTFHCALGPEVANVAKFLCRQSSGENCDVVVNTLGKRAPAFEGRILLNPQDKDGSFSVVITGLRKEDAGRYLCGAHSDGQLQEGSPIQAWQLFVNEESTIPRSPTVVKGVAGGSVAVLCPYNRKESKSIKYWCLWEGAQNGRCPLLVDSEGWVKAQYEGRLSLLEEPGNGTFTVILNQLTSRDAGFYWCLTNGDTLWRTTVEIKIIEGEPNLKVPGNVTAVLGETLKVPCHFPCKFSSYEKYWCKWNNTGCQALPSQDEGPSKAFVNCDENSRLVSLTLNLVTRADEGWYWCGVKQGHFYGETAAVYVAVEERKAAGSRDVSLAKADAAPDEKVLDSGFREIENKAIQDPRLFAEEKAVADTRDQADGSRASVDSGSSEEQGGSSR
procedureDetails: competition ELISA, dilution series of purified Nanobody against 1 ug/ml IgA on immobilised pIgR ectodomain

{"columns": ["binder", "binding result"],
 "data": [
  ["1D2 (VHH, Carries myc and His tags) VHH: EVQLVESGGGLVQPGGSLRLSCAASGFTLDYYAIGWFRRAPGKEREGVSCTSSSDGSTYYADSVKGRFTISRDNAKNTVYLQMNSLKPEDTAVYYCATTFGDACTVVAGIPDQYDFGSWGQGTQVTVSS", "binds"],
  ["1D7 (VHH, Carries myc and His tags (detected with anti-myc, pulled down on talon beads)) VHH: EVQLVESGGGLVQSGGSLRLSCAASGRAFNYYAMGWFRQAPGKERELVAVINWSGGTTSYADSVKGRFTISRSNAKNTVYLQMSSLKPEDTAVYYCAADSIYRTSKDYNYWGQGTQVTVSS", "binds"]
]}
